Taken from the supplement of paper PMC9170038.

Measured apparent KD of K4 kissing-loop reporter, listed per entry for reference.
- Test system: K4 kissing-loop RNA reporter
- ASSAY PROTOCOL: apparent KD of K4 kissing-loop reporter; higher = weaker reporter binding
- MEASUREMENT PARAMETERS: Eterna round: R107; input ligand: FMN 200 uM
Give just the number in µM; leave the unit off.

Observe how each entry below is paired with its result.
-- ask Provide the documented apparent KD of K4 kissing-loop reporter with K4 kissing-loop RNA reporter as the system for AAAACUCCGGGUAGUGAUGUUACCUAGGAUACCAGUAUCGCAACAUACCCUUGGCAGCCUCUUCCUGCUGGCGUCGCUUGGCCUA [theeternabot_exclusion_KL_Theo_A_42]
-- reply 0.0952

-- ask I'm curious: which apparent KD of K4 kissing-loop reporter was measured for UUUGGUUUCUCGGCCGCCACUCGUUGGUUAUGGGCCUCAGGGAUAUAGUGAUGUUAUGUAAAGAAGAGGACCGGGAGAAGGAAGG [ExTryptoB.Do] tested on K4 kissing-loop RNA reporter?
-- reply 0.493

-- ask What is its apparent KD of K4 kissing-loop reporter for K4 kissing-loop RNA reporter? Entry: GCAGUCAAUCGACCACGAAAGUGGAUGGAUACCAGCCCGAAACCGGGCCCUUGGCAGCCAGUGAUGUUGGAAGACUGCUUUAAAA [#SwitchBubble 14 #K4Late]
-- reply 0.371

-- ask Give K4 kissing-loop RNA reporter apparent KD of K4 kissing-loop reporter for AAUAAAAUCACGGCCGCCACUGGUACUAGUAUUAGCAGUGAUGUUGCUAUGUAUAAUUUAUUAAAUAGGACCGGGUGAAUAUUUA [#27 K4 Tryptophan B Exclusion]
-- reply 0.326

-- ask Recall the recorded apparent KD of K4 kissing-loop reporter for AACUCUCAGACACCUGAGUGAUGUUCAGGCCGAGGACCGGUACGGCCGCCACUCGGGUCUGAGAGAGGUUAUCAAAGAUAGCCAA [Omei KL Tryp A SS A v3] with K4 kissing-loop RNA reporter and state it.
-- reply 0.675

-- ask Checklist item: apparent KD of K4 kissing-loop reporter tested on K4 kissing-loop RNA reporter, entry AGUUCUUGCCGAAGGAGCGAGGCAGAGUGAUGUUCUGCAAAGGUCGAAAGACCUUAACUGCCUCAGGUAGGUCGCGGCAUGAACA [KL-XARG-B23] , value?
-- reply 0.622

---
-- ask Param readout= apparent KD of K4 kissing-loop reporter; system= K4 kissing-loop RNA reporter; entry= UUGGCCGGACGGGAUACCAGUCAAAUCGUGUGCUUGGGAUGUCUAAGAGCCAGUGAUGUUGGCCCUUGGCAGCCCUCCCAGCUUG [Esleaqu] ; returns value.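 Further: bound reporter read as fluorescence of individual clusters on recovered sequencing chips by microscopy, with normalized cluster intensities fitted with a binding model.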
-- reply 0.111

-- ask For the record UUGUUUGGUUGAGAGGUUGGGCGAGAUGAUACCAGUAGAGAAGAGUACCCUUGGCAGCAUAAGAAAGAUAUAGUGAUGUUGUAUA [SSTheophA.P] , what value of apparent KD of K4 kissing-loop reporter is listed for K4 kissing-loop RNA reporter?
-- reply 0.422

-- ask Lab note: need apparent KD of K4 kissing-loop reporter with K4 kissing-loop RNA reporter for entry AGUGCACUGUCAGGAUAUAUACAGUGAUGUUGUGUAUGUCAGCAAGUCAAAGACUUGCUAUUUUGUGUAGAAGGGACUGUGUACA [whbob_Ex_FMNB__2th221] , please look it up.
-- reply 0.385
